target or test system: Ylr278c (UniProt Q05854)
Sequence (Q05854 whole entry): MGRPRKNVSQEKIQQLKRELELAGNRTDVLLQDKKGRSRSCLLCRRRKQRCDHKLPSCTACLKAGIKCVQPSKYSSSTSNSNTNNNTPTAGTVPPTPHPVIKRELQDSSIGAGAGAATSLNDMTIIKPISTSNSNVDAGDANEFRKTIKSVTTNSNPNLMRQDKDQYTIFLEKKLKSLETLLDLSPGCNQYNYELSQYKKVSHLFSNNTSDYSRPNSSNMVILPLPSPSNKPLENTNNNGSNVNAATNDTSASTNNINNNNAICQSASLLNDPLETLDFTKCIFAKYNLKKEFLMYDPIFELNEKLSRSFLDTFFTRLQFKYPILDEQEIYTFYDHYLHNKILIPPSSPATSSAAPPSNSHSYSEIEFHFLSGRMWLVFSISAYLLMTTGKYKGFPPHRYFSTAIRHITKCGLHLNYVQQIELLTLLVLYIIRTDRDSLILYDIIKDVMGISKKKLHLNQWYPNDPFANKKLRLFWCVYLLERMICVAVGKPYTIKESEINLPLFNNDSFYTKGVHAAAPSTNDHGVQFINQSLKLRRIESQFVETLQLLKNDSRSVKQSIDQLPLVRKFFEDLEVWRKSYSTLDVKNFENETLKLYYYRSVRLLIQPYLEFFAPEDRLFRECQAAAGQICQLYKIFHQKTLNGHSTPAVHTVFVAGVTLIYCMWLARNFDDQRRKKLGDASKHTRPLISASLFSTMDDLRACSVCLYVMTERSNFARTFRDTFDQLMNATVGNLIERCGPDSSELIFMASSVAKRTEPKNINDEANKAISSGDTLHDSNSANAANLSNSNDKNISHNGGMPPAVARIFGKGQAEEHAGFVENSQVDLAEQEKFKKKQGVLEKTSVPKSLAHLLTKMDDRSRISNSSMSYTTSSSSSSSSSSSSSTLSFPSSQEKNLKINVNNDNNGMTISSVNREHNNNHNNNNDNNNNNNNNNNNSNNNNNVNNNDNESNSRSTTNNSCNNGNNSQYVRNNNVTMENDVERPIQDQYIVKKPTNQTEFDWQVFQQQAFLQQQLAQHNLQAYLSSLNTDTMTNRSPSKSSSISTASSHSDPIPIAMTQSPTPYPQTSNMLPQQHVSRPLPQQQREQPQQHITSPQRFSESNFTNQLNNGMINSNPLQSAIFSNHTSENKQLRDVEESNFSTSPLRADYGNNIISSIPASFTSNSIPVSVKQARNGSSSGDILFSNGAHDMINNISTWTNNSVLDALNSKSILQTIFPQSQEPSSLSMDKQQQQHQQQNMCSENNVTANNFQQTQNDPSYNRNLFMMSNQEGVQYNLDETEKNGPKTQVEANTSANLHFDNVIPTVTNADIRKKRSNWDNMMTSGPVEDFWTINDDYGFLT
assay notes: PBM E-score (8-mer binding enrichment) (E-score (-0.5 to 0.5)); higher = stronger / more preferred TF binding
measurement parameters: protein concentration: 200 nM; construct: GST-DNA-binding domain
Over roughly 33,000 sequences, “E-score (-0.5 to 0.5)” has its median near -0.054; the highest 2% begin near 0.39. Many of the other results were omitted from the sample, so the highest values are more common in it than they were.
Would you kindly list PBM E-score for each of these sequences?
One number for each entry.

For each entry beneath this line, provide reported PBM E-score.
1. CTCGGTGC
2. GACTTTAA
3. GAGCACGC
4. AAACAGAA
5. CGGACCAC
6. CCTAAACG
7. CTCAGTCA

Solution:
1. 0.0178
2. -0.0643
3. -0.106
4. -0.207
5. 0.293
6. -0.0312
7. -0.282

For each entry beneath this line, provide reported PBM E-score.
1. ACACGGAG
2. TCGGATAA
3. ACGGATAA
4. ATCGGAGA
5. AGCTAGTA
6. GACCCAGC
7. ACACGGAT

Solution:
0.419
0.403
0.293
0.455
-0.114
-0.272
0.199
